# measurement_target: plasmin (Homo sapiens)
# Sequence (P00747 581-810 limits assumed, species assumed): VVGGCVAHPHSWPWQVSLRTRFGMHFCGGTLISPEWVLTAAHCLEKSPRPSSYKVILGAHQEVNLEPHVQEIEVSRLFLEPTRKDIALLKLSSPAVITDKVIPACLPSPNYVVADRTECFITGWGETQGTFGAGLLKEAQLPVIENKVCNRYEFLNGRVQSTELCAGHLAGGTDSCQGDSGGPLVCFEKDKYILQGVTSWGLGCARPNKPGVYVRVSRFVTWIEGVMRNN
# Sequence (P00747 97-580 partner limits assumed, species assumed): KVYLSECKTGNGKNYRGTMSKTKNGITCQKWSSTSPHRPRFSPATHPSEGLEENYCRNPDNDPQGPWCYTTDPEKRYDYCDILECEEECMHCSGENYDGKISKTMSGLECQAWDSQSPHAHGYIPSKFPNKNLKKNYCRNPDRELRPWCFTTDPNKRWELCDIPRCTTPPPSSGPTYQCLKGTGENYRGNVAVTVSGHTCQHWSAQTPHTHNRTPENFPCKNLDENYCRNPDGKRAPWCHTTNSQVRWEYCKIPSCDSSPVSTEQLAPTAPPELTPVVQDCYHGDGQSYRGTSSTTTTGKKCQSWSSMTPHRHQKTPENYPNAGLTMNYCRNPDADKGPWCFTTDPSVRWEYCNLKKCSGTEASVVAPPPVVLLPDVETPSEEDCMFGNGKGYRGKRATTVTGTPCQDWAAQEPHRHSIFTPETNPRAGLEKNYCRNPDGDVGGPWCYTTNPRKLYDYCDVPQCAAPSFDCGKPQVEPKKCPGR
# measurement_notes: anti-plasmin activity, hydrolysis of TAME (tosylarginine methyl ester)
# Assay type: biochemical
Where a name gives a salt, the structure may show the parent alone.
endpoint_label: IC50 (nM)
Answers are plain numbers, in nM.

Documented IC50 of CC(C)(C)OC(=O)CCC(=O)NCc1ccc(C(=O)Oc2ccc3cc(C(=N)N)ccc3c2)o1 [Example 18, hydrochloride] : 190

###

Target chain: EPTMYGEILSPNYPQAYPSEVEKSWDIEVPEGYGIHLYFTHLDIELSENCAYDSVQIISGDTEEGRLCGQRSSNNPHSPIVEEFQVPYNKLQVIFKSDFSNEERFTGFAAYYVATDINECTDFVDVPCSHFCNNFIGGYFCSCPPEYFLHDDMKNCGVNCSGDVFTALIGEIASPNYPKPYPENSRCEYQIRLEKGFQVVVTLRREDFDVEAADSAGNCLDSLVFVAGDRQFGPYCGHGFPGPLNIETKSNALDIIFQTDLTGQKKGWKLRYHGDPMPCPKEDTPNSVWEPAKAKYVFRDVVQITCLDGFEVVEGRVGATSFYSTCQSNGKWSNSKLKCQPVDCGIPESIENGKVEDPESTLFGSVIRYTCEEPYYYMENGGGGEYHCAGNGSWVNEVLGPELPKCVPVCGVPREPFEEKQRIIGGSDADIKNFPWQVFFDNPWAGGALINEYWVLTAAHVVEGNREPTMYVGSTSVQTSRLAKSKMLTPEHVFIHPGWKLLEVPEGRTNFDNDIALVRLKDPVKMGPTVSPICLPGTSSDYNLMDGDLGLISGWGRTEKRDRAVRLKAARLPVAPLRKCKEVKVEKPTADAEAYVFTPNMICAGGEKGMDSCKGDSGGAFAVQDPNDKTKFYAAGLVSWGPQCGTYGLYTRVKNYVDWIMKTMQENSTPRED
Where a name gives a salt, the structure may show the parent alone.
endpoint_label: IC50 (µM)
Give bare numbers, in µM.

The following molecules have reported results that may help.
- molecule: "CC(C)(C)OC(=O)CC(=O)NCc1ccc(C(=O)Oc2ccc3cc(C(=N)N)ccc3c2)o1 [Example 15, hydrochloride]"
  scale_unit: "µM"
  IC50: 0.23
- molecule: "CC(C)(C)OC(=O)CCC(NC(=N)N)C(=O)NCc1ccc(C(=O)Oc2ccc3cc(C(=N)N)ccc3c2)o1 (stereo not shown) [Example 20, hydrochloride hydrobromide]"
  scale_unit: "µM"
  IC50: 0.39
- molecule: "CC(C)(C)OC(=O)c1ccc(CC(=O)NCc2ccc(C(=O)Oc3ccc4cc(C(=N)N)ccc4c3)o2)cc1 [Example 5, hydrochloride]"
  scale_unit: "µM"
  IC50: 0.36
- molecule: "Cl.N=C(N)c1ccc2cc(OC(=O)c3ccc(CNC(=O)CC(=O)O)o3)ccc2c1 [Example 17, hydrochloride]"
  scale_unit: "µM"
  IC50: 0.053
- molecule: "N=C(N)NC(CCC(=O)O)C(=O)NCc1ccc(C(=O)Oc2ccc3cc(C(=N)N)ccc3c2)o1 (stereo not shown) [Example 29, dihydrobromide]"
  scale_unit: "µM"
  IC50: 0.36

Report IC50 for each item below.
1. Cl.N=C(N)c1ccc2cc(OC(=O)c3ccc(CNC(=O)CCCC(=O)O)o3)ccc2c1 [Example 22, hydrochloride]
2. CC(C)(C)OC(=O)CCC(=O)NCc1ccc(C(=O)Oc2ccc3cc(C(=N)N)ccc3c2)o1 [Example 18, hydrochloride]

Ans:
0.25
0.19

For every item in the list below, what is its measured IC50?
1. N=C(N)c1ccc2cc(OC(=O)c3ccc(CNC(=O)[C@H]4CC[C@@H](C(=O)O)CC4)o3)ccc2c1 [Example 10, hydrochloride]
2. CC(C)(C)OC(=O)C=Cc1ccc(C(=O)NCc2ccc(C(=O)Oc3ccc4cc(C(=N)N)ccc4c3)o2)cc1 [Example 1, hydrobromide]

Ans:
[0.026, 0.27]

For each entry beneath this line, provide reported IC50.
1. N=C(N)c1ccc2cc(OC(=O)c3ccc(CNC(=O)CCC(=O)O)o3)ccc2c1 [Example 21, hydrochloride]
2. CC(C)(C)OC(=O)CCCC(=O)NCc1ccc(C(=O)Oc2ccc3cc(C(=N)N)ccc3c2)o1 [Example 19, hydrochloride]
3. Cl.N=C(N)c1ccc2cc(OC(=O)c3ccc(CNC(=O)c4ccc(C(=O)O)cc4)o3)ccc2c1 [Example 3, hydrochloride]
4. N=C(N)c1ccc2cc(OC(=O)c3ccc(CNC(=O)c4ccc(CC(=O)O)cc4)o3)ccc2c1 [Example 7, hydrochloride]
5. Cc1oc(=O)oc1COC(=O)CCC(=O)NCc1ccc(C(=O)Oc2ccc3cc(C(=N)N)ccc3c2)o1 [Example 33, hydrochloride]
6. COC(=O)Cc1ccc(C(=O)NCc2ccc(C(=O)Oc3ccc4cc(C(=N)N)ccc4c3)o2)cc1 [Example 4, hydrochloride]

Ans:
1: 0.18; 2: 0.72; 3: 3.4; 4: 0.46; 5: 0.22; 6: 0.16

Recorded result, N=C(N)c1ccc2cc(OC(=O)c3ccc(CNC(=O)c4ccc(CCC(=O)O)cc4)o3)ccc2c1 [Example 9, hydrochloride] , IC50: 2.3
